system: OVCAR-5 ovarian; test: NCI tumour cell line growth inhibition, 48 h; in the data active means GI50 below about 0.43 µM; inactive means the rest
In this exercise, the only acceptable responses are T for active, F for inactive

{"SMILES RECORD": "CNC(=O)c1cncc(/C=C/c2c(C)cccc2C)c1", "CATEGORY LABEL": "F"}
{"SMILES RECORD": "COc1ccccc1N1CCN(C(=O)c2ccc(NS(=O)(=O)c3cccc4cccnc34)cc2)CC1", "CATEGORY LABEL": "F"}

Recorded test outcome, item CCOC(=O)c1c(C)[nH]c(/C=C2\N=C(c3ccc[nH]3)C=C2OC)c1C T

----------
system: OVCAR-4 ovarian; assay: NCI tumour cell line growth inhibition, 48 h
Overview of recorded TGI for various molecules

{"MOLECULE": "O=C1/C=C/[C@@H](O)[C@@H]2C[C@@H](O)C[C@H]2/C=C/CCC[C@H](CO)O1", "EXPERIMENTAL TARGET": "OVCAR-4 ovarian", "TGI": "> 100 µM"}
{"MOLECULE": "CCOC(=O)c1cc(=O)oc2c1N(C)c1ncccc1N2", "EXPERIMENTAL TARGET": "OVCAR-4 ovarian", "TGI": "> 100 µM"}

# return recorded TGI for entry CC1=C(C(=O)Nc2ccccc2)C(c2ccc(C)o2)C(C#N)=C(SCc2ccccc2)N1 (stereo not drawn) > 100 µM

Attribution: PubChem BioAssay (NCI)
